Species on record: Rattus norvegicus
Assay: DrugMatrix - Regimen: Daily Repeat
Type: toxicity, organism-based, Sprague-Dawley
Set-up: regimen Daily Repeat, gender Male, age 6-8 weeks
Conditions: in vivo, po, 0 mg/kg, 72 h, tissue Plasma, route oral GAVAGE, dose level Control, time 3 day, […]
Property: CARBON DIOXIDE; scope: individual compounds
I only need the number, in mmol/L, no unit after it.

Reference set, count: 2
CC/C(=C(/CC)c1ccc(O)cc1)c1ccc(O)cc1
30
S=C=Nc1cccc2ccccc12 [1-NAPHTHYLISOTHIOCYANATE]
31.17

// sample O=C(O)Cc1ccccc1Nc1c(Cl)cccc1Cl , its CARBON DIOXIDE was 33.17

// sample COc1ccc2[nH]c([S+]([O-])Cc3ncc(C)c(OC)c3C)nc2c1 (stereo not given) , its CARBON DIOXIDE was 30.33

// sample CCOC(=O)C1=C(C)NC(C)=C(C(=O)OC)C1c1cccc([N+](=O)[O-])c1 (stereo not given) , its CARBON DIOXIDE was 34.17

* * *

Species on record: Rattus norvegicus
Assay: DrugMatrix - Regimen: Daily Repeat
Type: toxicity, organism-based, Sprague-Dawley
Design: regimen Daily Repeat, gender Male, age 6-8 weeks
Conditions: in vivo, iv, 0 mg/kg, 120 h, tissue Blood, dose level Control, time 5 day, vehicle 100 % SALINE
READOUT LABEL: MEAN CORPUSCULAR HEMOGLOBIN

// sample CC(=O)N[C@@H]1[C@H](Oc2c3cc4cc2Oc2ccc(cc2Cl)[C@@H](O[C@@H]2O[C@@H](CO)[C@@H](O)[C@H](O)[C@@H]2NC(C)=O)[C@@H]2NC(=O)[C@H](NC(=O)[C@@H]4NC(=O)[C@H]4NC(=O)[C@@H](Cc5ccc(c(Cl)c5)O3)NC(=O)[C@H](N)c3ccc(O)c(c3)Oc3cc(O)cc4c3)c3ccc(O)c(c3)-c3c(O[C@H]4O[C@H](CO)[C@@H](O)[C@@H](O)[C@@H]4O)cc(O)cc3[C@@H](C(=O)O)NC2=O)O[C@@H](CO)[C@@H](O)[C@@H]1O , its MEAN CORPUSCULAR HEMOGLOBIN was 23.08 pg

* * *

Species on record: Rattus norvegicus
Assay: DrugMatrix - Regimen: Daily Repeat
Assay type: toxicity, organism-based, Sprague-Dawley
Set-up: regimen Daily Repeat, gender Male, age 6-8 weeks
Conditions: in vivo, po, 0 mg/kg, 72 h, tissue Plasma, route oral GAVAGE, dose level Control, time 3 day, […]
READOUT LABEL: TOTAL PROTEIN (G/DL)
I only need the number, in G/DL, no unit after it.

// sample CCOC(=O)C1=C(C)NC(C)=C(C(=O)OC)C1c1cccc([N+](=O)[O-])c1 (stereo not given) , its TOTAL PROTEIN was 5.77

* * *

Property: EOSINOPHIL; scope: individual molecules
Organism: Rattus norvegicus
Test: DrugMatrix - Regimen: Daily Repeat
Format: toxicity, organism-based, Sprague-Dawley
Set-up: regimen Daily Repeat, gender Male, age 6-8 weeks
Conditions: in vivo, iv, 0 mg/kg, 120 h, tissue Blood, dose level Control, time 5 day, vehicle 100 % SALINE
I only need the number, in %, no unit after it.

Reference set, count: 2
CCc1c2c(nc3ccc(OC(=O)N4CCC(N5CCCCC5)CC4)cc13)-c1cc3c(c(=O)n1C2)COC(=O)[C@]3(O)CC [IRINOTECAN]
0.17
CC(=O)N[C@@H]1[C@H](Oc2c3cc4cc2Oc2ccc(cc2Cl)[C@@H](O[C@@H]2O[C@@H](CO)[C@@H](O)[C@H](O)[C@@H]2NC(C)=O)[C@@H]2NC(=O)[C@H](NC(=O)[C@@H]4NC(=O)[C@H]4NC(=O)[C@@H](Cc5ccc(c(Cl)c5)O3)NC(=O)[C@H](N)c3ccc(O)c(c3)Oc3cc(O)cc4c3)c3ccc(O)c(c3)-c3c(O[C@H]4O[C@H](CO)[C@@H](O)[C@@H](O)[C@@H]4O)cc(O)cc3[C@@H](C(=O)O)NC2=O)O[C@@H](CO)[C@@H](O)[C@@H]1O
0.17

// sample CCC1=C[C@@H]2CN(C1)Cc1c([nH]c3ccccc13)[C@@](C(=O)OC)(c1cc3c(cc1OC)N(C)[C@H]1[C@@](O)(C(=O)OC)[C@H](OC(C)=O)[C@]4(CC)C=CCN5CC[C@]31[C@@H]54)C2 [VINORELBINE] , its EOSINOPHIL was 0.33

// sample COc1cccc2c1C(=O)c1c(O)c3c(c(O)c1C2=O)C[C@@](O)(C(=O)CO)C[C@@H]3O[C@H]1C[C@H](N)[C@@H](O)[C@H](C)O1 [EPIRUBICIN] , its EOSINOPHIL was 0.17

// sample CC[C@]1(O)C[C@@H]2CN(CCc3c([nH]c4ccccc34)[C@@](C(=O)OC)(c3cc4c(cc3OC)N(C)[C@H]3[C@@](O)(C(=O)OC)[C@H](OC(C)=O)[C@]5(CC)C=CCN6CC[C@]43[C@@H]65)C2)C1 [VINBLASTINE] , its EOSINOPHIL was 0.17

// sample COc1cccc2c1C(=O)c1c(O)c3c(c(O)c1C2=O)C[C@@](O)(C(=O)CO)C[C@@H]3O[C@H]1C[C@H](N)[C@H](O)[C@H](C)O1 [DOXORUBICIN] , its EOSINOPHIL was 0.67
